# experimental.target: T1, cyno SIRPα-Fc (cynomolgus)
# T1 construct: a signal peptide may be part of the entry
# run.description: BLI Octet, antigen-Fc on biosensor;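 also: antigen captured on the biosensor tip and then immersed in solutions of the test antibodies, which act as the analyte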
measurement.type: koff (s⁻¹)

- SIRPAB-9 (antibody, human IgG1, kappa, V domains shown) VH: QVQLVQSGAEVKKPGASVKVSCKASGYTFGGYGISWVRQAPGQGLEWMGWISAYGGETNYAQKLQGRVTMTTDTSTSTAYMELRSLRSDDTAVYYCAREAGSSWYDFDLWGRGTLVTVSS VL: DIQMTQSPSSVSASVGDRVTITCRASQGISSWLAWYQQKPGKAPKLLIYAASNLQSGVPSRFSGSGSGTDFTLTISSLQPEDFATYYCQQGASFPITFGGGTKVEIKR: 0.0212
- SIRPAB-10 (antibody, human IgG1, kappa, V domains shown) VH: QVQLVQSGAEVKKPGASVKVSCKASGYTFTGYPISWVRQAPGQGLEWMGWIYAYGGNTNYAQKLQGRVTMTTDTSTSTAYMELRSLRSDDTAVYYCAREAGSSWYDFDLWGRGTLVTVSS VL: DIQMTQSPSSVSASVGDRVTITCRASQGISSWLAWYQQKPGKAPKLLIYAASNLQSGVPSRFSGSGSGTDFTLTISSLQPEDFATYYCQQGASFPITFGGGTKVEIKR: 0.00683
- SIRPAB-7 (antibody, human IgG1, kappa, V domains shown) VH: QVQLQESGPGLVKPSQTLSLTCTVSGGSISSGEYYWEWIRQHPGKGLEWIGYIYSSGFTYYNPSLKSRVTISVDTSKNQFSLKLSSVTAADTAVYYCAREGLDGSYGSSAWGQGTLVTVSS VL: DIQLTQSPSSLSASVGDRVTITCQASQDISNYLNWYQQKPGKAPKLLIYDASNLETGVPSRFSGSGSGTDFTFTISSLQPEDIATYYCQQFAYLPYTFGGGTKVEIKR: 0.00546
- SIRPAB-13 (antibody, human IgG1, kappa, V domains shown) VH: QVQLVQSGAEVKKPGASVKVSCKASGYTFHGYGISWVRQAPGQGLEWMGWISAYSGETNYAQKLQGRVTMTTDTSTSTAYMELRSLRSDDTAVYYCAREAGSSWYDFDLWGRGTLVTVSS VL: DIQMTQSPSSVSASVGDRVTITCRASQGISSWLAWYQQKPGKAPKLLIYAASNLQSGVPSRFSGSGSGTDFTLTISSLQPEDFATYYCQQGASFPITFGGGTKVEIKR: 0.0197

Values were extracted from patent US20200102387A1.
